Reported IC50 by item:
# assay system: UniProt:Q15858
# method description: FLIPR or FLIPR TETRA sodium dye assay with KCl and test article pre-incubation
# Assay type: cell-based
# condition summary: recombinant human Nav1.7 in HEK293; veratridine + scorpion venom
Supply the numeric figure in µM, leaving out any unit text.

Specify reported IC50 for the compound shown: NC(=O)c1cc(CN[C@H]2CCNC2=O)nc(-c2ccc(Oc3ccc(Cl)cc3F)cc2)n1 [Compound 15] 0.065

Specify reported IC50 for the compound shown: NC(=O)c1cc(CO)nc(C2=CCC(Oc3ccc(C(F)(F)F)cc3)CC2)n1 (stereo not drawn) [Compound 54] 0.242

Specify reported IC50 for the compound shown: C[C@H](NCc1cc(C(N)=O)nc(-c2ccc(Oc3ccc(C(F)(F)F)cc3)cc2)n1)C(N)=O [Compound 21] 0.042

Specify reported IC50 for the compound shown: NC(=O)c1cc(CN2C[C@H](O)C[C@H]2C(N)=O)nc(-c2ccc(Oc3ccc(C(F)(F)F)cc3)cc2)n1 [Compound 24] 0.583

Specify reported IC50 for the compound shown: C[C@H](NCc1cc(C(N)=O)nc(C2=CCC(Oc3ccc(C(F)(F)F)cc3)CC2)n1)C(N)=O (stereo partly drawn) [Compound 57] 0.557

###

# assay system: human Nav1.7 (Homo sapiens (Human), UniProt Q15858)
# Sequence (Q15858 other isoform, or with tags, fused parts or gaps): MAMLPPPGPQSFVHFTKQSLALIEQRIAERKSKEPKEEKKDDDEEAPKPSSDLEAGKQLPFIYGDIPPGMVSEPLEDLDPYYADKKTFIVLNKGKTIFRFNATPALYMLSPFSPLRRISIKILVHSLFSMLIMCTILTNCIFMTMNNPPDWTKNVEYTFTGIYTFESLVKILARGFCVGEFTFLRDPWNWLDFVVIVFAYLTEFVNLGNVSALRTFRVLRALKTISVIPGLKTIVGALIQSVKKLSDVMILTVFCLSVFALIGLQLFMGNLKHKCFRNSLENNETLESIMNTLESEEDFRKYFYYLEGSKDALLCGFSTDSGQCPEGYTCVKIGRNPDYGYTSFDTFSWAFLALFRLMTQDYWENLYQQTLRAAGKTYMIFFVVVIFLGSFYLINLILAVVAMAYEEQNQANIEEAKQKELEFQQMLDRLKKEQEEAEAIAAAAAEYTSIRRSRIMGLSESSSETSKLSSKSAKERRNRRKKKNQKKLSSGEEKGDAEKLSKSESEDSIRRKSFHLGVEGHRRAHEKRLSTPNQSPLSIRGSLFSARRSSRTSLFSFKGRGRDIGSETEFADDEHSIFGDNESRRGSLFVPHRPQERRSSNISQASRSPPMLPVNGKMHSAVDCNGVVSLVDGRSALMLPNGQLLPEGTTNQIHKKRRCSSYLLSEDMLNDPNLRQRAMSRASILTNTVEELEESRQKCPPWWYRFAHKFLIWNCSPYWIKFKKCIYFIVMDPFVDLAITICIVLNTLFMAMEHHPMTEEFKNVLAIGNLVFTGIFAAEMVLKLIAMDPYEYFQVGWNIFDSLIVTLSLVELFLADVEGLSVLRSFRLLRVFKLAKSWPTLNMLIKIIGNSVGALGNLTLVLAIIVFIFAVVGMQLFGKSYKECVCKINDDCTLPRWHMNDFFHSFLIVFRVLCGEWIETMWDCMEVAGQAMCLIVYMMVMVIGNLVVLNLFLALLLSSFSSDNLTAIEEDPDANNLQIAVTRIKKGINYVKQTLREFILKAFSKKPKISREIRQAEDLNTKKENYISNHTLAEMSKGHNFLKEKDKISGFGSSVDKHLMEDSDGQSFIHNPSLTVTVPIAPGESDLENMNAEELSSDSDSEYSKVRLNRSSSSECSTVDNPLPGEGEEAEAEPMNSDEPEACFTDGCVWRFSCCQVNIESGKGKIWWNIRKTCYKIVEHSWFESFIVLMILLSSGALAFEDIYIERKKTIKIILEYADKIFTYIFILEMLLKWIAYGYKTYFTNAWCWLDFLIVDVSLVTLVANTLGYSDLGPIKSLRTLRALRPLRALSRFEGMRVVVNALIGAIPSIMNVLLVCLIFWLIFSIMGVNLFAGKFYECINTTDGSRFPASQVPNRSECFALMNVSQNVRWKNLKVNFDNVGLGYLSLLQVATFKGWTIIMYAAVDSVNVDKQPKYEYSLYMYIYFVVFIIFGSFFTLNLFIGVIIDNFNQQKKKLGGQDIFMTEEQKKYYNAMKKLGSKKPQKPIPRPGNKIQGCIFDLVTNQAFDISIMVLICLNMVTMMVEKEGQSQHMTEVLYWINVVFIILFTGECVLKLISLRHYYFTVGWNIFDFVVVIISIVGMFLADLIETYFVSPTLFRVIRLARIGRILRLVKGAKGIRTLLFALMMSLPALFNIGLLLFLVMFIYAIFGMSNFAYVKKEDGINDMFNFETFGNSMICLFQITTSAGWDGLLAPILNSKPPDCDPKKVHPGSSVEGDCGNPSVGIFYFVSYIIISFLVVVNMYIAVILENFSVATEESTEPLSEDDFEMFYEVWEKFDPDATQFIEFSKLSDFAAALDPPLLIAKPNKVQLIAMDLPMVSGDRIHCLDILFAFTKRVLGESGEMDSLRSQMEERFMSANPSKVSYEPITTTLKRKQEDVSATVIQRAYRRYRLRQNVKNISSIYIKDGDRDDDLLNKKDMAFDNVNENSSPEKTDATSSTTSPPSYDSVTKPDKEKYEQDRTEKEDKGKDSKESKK
# method description: FLIPR or FLIPR TETRA sodium dye assay with KCl and test article pre-incubation
# Type: cell-based
# condition summary: recombinant human Nav1.7 in HEK293; veratridine + scorpion venom
Reported IC50 by item:
Supply the numeric figure in µM, leaving out any unit text.

Solved entries (count: 2):
NC(=O)c1cc(CN[C@H]2CCNC2=O)nc(-c2ccc(Oc3ccc(C(F)(F)F)cn3)cc2)n1 [Compound 26] ... 1.75
NC(=O)c1cc(CN2CC[C@@H](O)[C@H]2C(N)=O)nc(-c2ccc(Oc3ccc(C(F)(F)F)cc3)cc2)n1 [Compound 65] ... 0.094

Continue with the compound presented below.
Under human Nav1.7 (Homo sapiens (Human), UniProt Q15858), report IC50 for NC(=O)c1cc(CN[C@H]2CCNC2=O)nc(-c2ccc(Oc3ccc(C4CC4)cn3)cc2)n1 [Compound 14] 3.39

###

# assay system: human Nav1.7 (Homo sapiens (Human), UniProt Q15858)
# method description: FLIPR or FLIPR TETRA sodium dye assay with KCl and test article pre-incubation
# Assay type: cell-based
# condition summary: recombinant human Nav1.7 in HEK293; veratridine + scorpion venom
Note to self: use 1 only for IC50 readings below 0.2 µM; a reading exactly at 0.2 µM still gets -1.

Completed entries (count: 2):
O=C1NCC[C@@H]1NCc1cc([C@H](O)CO)nc(-c2ccc(Oc3ccc(OC(F)(F)F)cc3)cc2)n1 [Compound 40] ... -1
NC(=O)c1cc(CN[C@@H](CO)C(N)=O)nc(C2=CCC(Oc3ccc(C(F)(F)F)cc3)CC2)n1 (stereo partly shown) [Compound 58] ... -1

# TODO verify IC50 < 0.2 µM strictly for this compound: NC(=O)c1cc(CN2CCNC(=O)C2)nc(-c2ccc(Oc3ccc(C(F)(F)F)cc3)cc2)n1 [Compound 27] 1

# TODO verify IC50 < 0.2 µM strictly for this compound: NC(=O)c1cc(CN[C@H]2CCNC2=O)nc(-c2ccc(Oc3ccc(C(F)(F)F)cc3)cc2)n1 [Compound 20] -1

###

# assay system: human Nav1.7 (Homo sapiens (Human), UniProt Q15858)
# method description: FLIPR or FLIPR TETRA sodium dye assay with KCl and test article pre-incubation
# Format: cell-based
# condition summary: recombinant human Nav1.7 in HEK293; veratridine + scorpion venom
Reported IC50 by item:
Supply the numeric figure in µM, leaving out any unit text.

Solved entries (count: 4):
NC(=O)c1cc(CN[C@@H](CO)C(N)=O)nc(-c2ccc(Oc3ccc(C(F)(F)F)cc3)cc2)n1 ... 0.2
NC(=O)c1cc(CN2CC(=O)NC(=O)C2)nc(-c2ccc(Oc3ccc(C(F)(F)F)cc3)cc2)n1 ... 0.205
NC(=O)c1cc(CN[C@@H]2CCNC2=O)nc(C2=CCC(Oc3ccc(C(F)(F)F)cc3)CC2)n1 (stereo partly drawn) ... 0.544
CC(C)[C@H](NCc1cc(C(N)=O)nc(-c2ccc(Oc3ccc(C(F)(F)F)cc3)cc2)n1)C(N)=O ... 0.2

Under human Nav1.7 (Homo sapiens (Human), UniProt Q15858), report IC50 for NC(=O)c1cc(CN2CCC[C@H]2C(N)=O)nc(-c2ccc(Oc3ccc(C(F)(F)F)cc3)cc2)n1 0.085

Reference for the values: patent US9745287B2
